Reported inhibition at 10 µM is given for each of the following molecules.
Test system: K-562
Assay protocol: NCI anticancer screening, Leukemia K-562
Format: cell-based
Cond: Homo sapiens, K562; K-562, 10 μM; read-out: % Growth Inhibition (GI %)
Express your answer in %, writing the number without its unit.

Worked examples, 3 molecules total:
> print(dat)
                                   molecule             quantity  meas.value
1  O=C(c1nc2ccccc2[nH]1)[C@H]1[C@H](c2ccc(Cl)cc2Cl)C2CSCN2[C@]12C(=O)Nc1ccccc12 (stereo partly shown)  inhibition at 10 µM        65.6
2  O=C(c1nc2ccccc2[nH]1)[C@H]1[C@H](c2cccs2)C2CSCN2[C@]12C(=O)Nc1ccccc12 (stereo partly shown)  inhibition at 10 µM         100
3  O=C(c1nc2ccccc2[nH]1)[C@H]1[C@H](c2ccc(C(F)(F)F)cc2)C2CSCN2[C@]12C(=O)Nc1ccccc12 (stereo partly shown)  inhibition at 10 µM        83.1

-- ask Item CN(C)c1ccc([C@@H]2C3CSCN3[C@]3(C(=O)Nc4ccccc43)[C@H]2C(=O)c2nc3ccccc3[nH]2)cc1 (stereo partly shown) has what recorded inhibition at 10 µM?
-- reply 92.2
